meta.source: patent US20260042764A1

# target_entity: Avi-KRAS WT (1-169) GppNHp/RAF1 RBD-3xFLAG (52-151) (Homo sapiens)
# Construct: Avi-KRAS WT (1-169)
# Sequence (P01116 1-169 isoform P01116-2): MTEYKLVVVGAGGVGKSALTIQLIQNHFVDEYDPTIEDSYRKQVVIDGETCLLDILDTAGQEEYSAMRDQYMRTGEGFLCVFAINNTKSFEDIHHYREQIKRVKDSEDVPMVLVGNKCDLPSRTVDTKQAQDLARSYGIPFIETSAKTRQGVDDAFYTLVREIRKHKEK
# protocol_notes: Raf1-KRAS WT-GppNHP disruption HTRF assay (Biological Example 1)
# Assay type: binding
# recorded_conditions: KRAS WT-GppNHp/RAF1 RBD HTRF
recorded_endpoint: IC50

The following compounds have reported results that may help.
CCC(=O)N1CC[C@@H](N(CC)c2nc(OC[C@@]34CCCN3C[C@H](F)C4)nc3c(F)c(-c4ccc(F)c5sc(N)c(C#N)c45)c(C(F)(F)F)cc23)[C@H]1C (atropisomer, axis not shown) [Compound 523] | < 0.1 µM
C[C@@H]1[C@H](N(C)c2nc(OC[C@@]34CCCN3C[C@H](F)C4)nc3c(F)c(-c4ccc(F)c5sc(N)c(C#N)c45)c(Cl)cc23)CCN1C(=O)C(C)(F)F | 1 to 10 µM
CC(=O)N1CCC[C@@H](N(C)c2nc(OC[C@@]34CCCN3C[C@H](F)C4)nc3c(F)c(-c4ccc(F)c5sc(N)c(C#N)c45)c(C(F)(F)F)cc23)C1 | 0.1 to 1 µM
CCN(c1nc(OC[C@@]23CCCN2C[C@H](F)C3)nc2c(F)c(-c3ccc(F)c4sc(N)c(C#N)c34)c(C(F)(F)F)cc12)[C@H]1C[C@H](C)N(C(=O)C(C)C)C1 | 0.1 to 1 µM
CCN(c1nc(OC[C@@]23CCCN2C[C@H](F)C3)nc2c(F)c(-c3ccc(F)c4sc(N)c(C#N)c34)c(C(F)(F)F)cc12)C1C[C@@H](C)N(C(=O)C2CC2)C1 (stereo partly shown) | 0.1 to 1 µM

// each compound listed below needs its IC50
1. N#Cc1c(N)sc2c(F)ccc(-c3c(C(F)(F)F)cc4c(N5CCC[C@H](CO)C5)nc(OC[C@@]56CCCN5C[C@H](F)C6)nc4c3F)c12
2. CCC(=O)N1CC[C@@H](N(C)c2nc(OC[C@@]34CCCN3C[C@H](F)C4)nc3c(F)c(-c4ccc(F)c5sc(N)c(C#N)c45)c(C(F)(F)F)cc23)[C@H]1C (atropisomer, axis not shown)
3. N#Cc1c(N)sc2c(F)ccc(-c3c(C(F)(F)F)cc4c(N5CCn6nc(C(=O)N7CC[C@H](O)C7)cc6C5)nc(OC[C@@]56CCCN5C[C@H](F)C6)nc4c3F)c12
4. C[C@@H]1[C@H](N(C)c2nc(OC[C@@]34CCCN3C[C@H](F)C4)nc3c(F)c(-c4ccc(F)c5sc(N)c(C#N)c45)c(Cl)cc23)CCN1C(=O)C1CC1
5. CCC(=O)N1C[C@@H](N(CC)c2nc(OC[C@@]34CCCN3C[C@H](F)C4)nc3c(F)c(-c4ccc(F)c5sc(N)c(C#N)c45)c(C(F)(F)F)cc23)C[C@@H]1C

["0.1 to 1 µM", "< 0.1 µM", "0.1 to 1 µM", "0.1 to 1 µM", "0.1 to 1 µM"]

====

# target_entity: Avi-KRAS G12C (2-169) GTP/RAF1 RBD-3xFLAG (51-131) (Homo sapiens, UniProt P01116, G12C)
# Construct: Avi-KRAS G12C (2-169)
# Sequence (P01116 2-169 isoform P01116-2 G12C): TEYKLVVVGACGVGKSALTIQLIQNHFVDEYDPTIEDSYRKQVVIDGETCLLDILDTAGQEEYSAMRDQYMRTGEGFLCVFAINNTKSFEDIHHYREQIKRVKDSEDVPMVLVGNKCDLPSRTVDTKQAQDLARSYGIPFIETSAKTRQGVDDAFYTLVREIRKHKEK
# protocol_notes: Raf1-KRAS G12C-GTP disruption HTRF assay (Biological Example 3)
# Format: binding
# recorded_conditions: KRAS G12C, GTP-loaded
recorded_endpoint: IC50

The following compounds have reported results that may help.
CCN(c1nc(OC[C@@]23CCCN2C[C@H](F)C3)nc2c(F)c(-c3ccc(F)c4sc(N)c(C#N)c34)c(C(F)(F)F)cc12)[C@H]1CCN(C(=O)[C@@H]2CC2(F)F)[C@H]1C (atropisomer, axis not shown) | 1 to 10 µM
CCN(c1nc(OC[C@@]23CCCN2C[C@H](F)C3)nc2c(F)c(-c3ccc(F)c4sc(N)c(C#N)c34)c(C(F)(F)F)cc12)[C@H]1CCN(C(=O)N(C)C)[C@@H]1COC (atropisomer, axis not shown) | 0.1 to 1 µM
CCN(c1nc(OC[C@@]23CCCN2C[C@H](F)C3)nc2c(F)c(-c3ccc(F)c4sc(N)c(C#N)c34)c(C(F)(F)F)cc12)[C@H]1CCN(C(=O)[C@@H]2C[C@@H]2C)C1 (atropisomer, axis not shown) | 0.1 to 1 µM

Next up:
Please fill in: IC50 reported for CCN(c1nc(OCC23CCCN2CC(F)C3)nc2c(F)c(-c3ccc(F)c4sc(N)c(C#N)c34)c(C(F)(F)F)cc12)C1CCN(C(=O)c2cnc(C#N)s2)C1 (stereo not shown) = 0.1 to 1 µM
